In this section, each of the compounds is paired with its reported inhibition in vivo at 100 mg/kg.
system: passive cutaneous anaphylaxis (PCA) reaction; assay: Effect on homologous passive cutaneous anaphylaxis (PCA) reaction in rats; assay type: in vivo; conditions: Rattus norvegicus, po, 0.5 h; test compounds, 100 mg/kg p.o., 1 hour before induction of anaphylaxis, male wistar rats
metric name: inhibition in vivo at 100 mg/kg (%)

INSERT INTO results (structure_notation, metric_name, readout_number) VALUES
  ('CCCCCCCCNc1ccc2c(O)c(OC)c(=O)n(C)c2c1', 'inhibition in vivo at 100 mg/kg', 46),
  ('CCOc1c(OC(C)=O)c(=O)n(C)c2cc(N)ccc12', 'inhibition in vivo at 100 mg/kg', 41),
  ('CCCCCCCCOc1c(O)c2ccc(NCc3ccccc3)cc2n(C)c1=O', 'inhibition in vivo at 100 mg/kg', 40),
  ('CCCCCCCCOc1c(O)c2ccc(NC(=O)c3ccccc3)cc2n(C)c1=O', 'inhibition in vivo at 100 mg/kg', 46),
  ('C=CCNc1ccc2c(O)c(OCCCCCCCC)c(=O)n(C)c2c1', 'inhibition in vivo at 100 mg/kg', 46);
